Cited source: patent US20230165252A1

Test: Measurement of Log P values by HPLC on reversed phase columns (EEC directive 79/831 Annex V.A8), methods [a], [b], [c]
Type: physicochemical
Conditions: method [a]: LC-UV, acidic range, 0.1% formic acid in water and acetonitrile as eluent (10% to 95% acetonitrile); Table 3, compounds of formula (1)
Property: LogP; scope: individual compounds
PARAMETER_MEASURED: LogP

O=C(O)c1cc(C2CC2)nnc1Oc1cccc(C(F)F)c1 | 1.68^[a]
O=C(O)c1cc(C2CC2)nnc1Oc1cccc(C(F)(F)F)c1 | 1.90^[a]
CC(C)OC(=O)c1cc(Cl)nnc1Oc1cccc(F)c1F | 3.65^[a]
Cc1c(Cl)nnc(Oc2cccc(C3CC3(F)F)c2)c1C(=O)O (racemic) | 1.69^[a]
Cc1nnc(Oc2cccc(C3CC3)c2)c(C(=O)O)c1C | 1.10^[a]
CC(C)OC(=O)c1cc(-c2ccncc2Cl)nnc1Oc1cccc(F)c1F | 3.65^[a]
O=C(O)c1cc(-c2ccncc2Cl)nnc1Oc1cccc(C(F)F)c1F | 1.86^[a]

====

Property: LogP; scope: individual compounds
Test: Measurement of Log P values by HPLC on reversed phase columns (EEC directive 79/831 Annex V.A8), methods [a], [b], [c]
Format: physicochemical
Details: HPLC on reversed phase column, method [a]
PARAMETER_MEASURED: LogP

Cc1cnnc(Oc2cccc(C(F)(F)F)c2)c1C(=O)NCC(F)(F)c1ccc(Cl)cc1Cl | 3.78^[a]
O=C(NCC(F)(F)c1cc(Cl)sc1Cl)c1cc(Cl)nnc1Oc1cccc(C(F)(F)F)c1 | 4.73^[a]
O=C(NCC(F)(F)c1ccc(Cl)cn1)c1cc(Cl)nnc1Oc1cccc(C(F)F)c1 | 3.32^[a]
COc1ccc(CCNC(=O)c2cc(Cl)nnc2Oc2cccc(C(F)(F)F)c2)cc1 | 3.61^[a]
O=C(NCCc1ncccc1C(F)(F)F)c1cc(Cl)nnc1Oc1cccc(C(F)(F)F)c1 | 3.65^[a]
Cc1ccc(C(F)(F)CNC(=O)c2c(Oc3cccc(C(F)(F)F)c3)nnc(Cl)c2[S+](C)[O-])c(C)c1 (stereo not drawn) | 3.75^[a]
CC(CNC(=O)c1cc(Cl)nnc1Oc1cccc(C(F)(F)F)c1)c1ccc(Cl)cc1Cl (stereo not drawn) | 4.68^[a]
Cc1ccc(C(F)CNC(=O)c2c(Oc3cccc(C4CC4)c3F)nnc(C)c2C)c(C)c1 (racemic) | 3.78^[a]
Cc1ccc(C(F)(F)CNC(=O)c2c(Oc3cccc(C(F)(F)F)c3)nnc(Cl)c2NCC(C)(C)O[Si](C)(C)C)c(C)c1 | 6.32^[a]
CCOc1c(Cl)nnc(Oc2cccc(C(F)(F)F)c2)c1C(=O)NCC(F)(F)c1ccc(C)cc1C | 4.68^[a]
O=C(NCCc1ccc(C(F)(F)F)cn1)c1cc(Cl)nnc1Oc1cccc(C(F)(F)F)c1 | 3.53^[a]
Cc1ccc(C(F)(F)CNC(=O)c2cc(Cl)nnc2Oc2cncc(Br)c2)c(C)c1 | 3.78^[a]
